Target: T1, Dpo4 (SsoDpo4, Y-family DNA polymerase) (Sulfolobus solfataricus, UniProt Q97W02 1-352)
T1 sequence: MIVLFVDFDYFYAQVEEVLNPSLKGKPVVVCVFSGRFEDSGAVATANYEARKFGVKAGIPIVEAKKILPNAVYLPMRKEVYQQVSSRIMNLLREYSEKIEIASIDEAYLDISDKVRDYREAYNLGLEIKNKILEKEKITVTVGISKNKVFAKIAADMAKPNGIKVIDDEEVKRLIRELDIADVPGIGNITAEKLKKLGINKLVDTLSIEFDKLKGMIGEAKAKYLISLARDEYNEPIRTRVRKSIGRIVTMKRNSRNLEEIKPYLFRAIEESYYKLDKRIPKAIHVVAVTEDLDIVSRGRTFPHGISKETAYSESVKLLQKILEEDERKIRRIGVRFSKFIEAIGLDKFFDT
Assay: fluorescence anisotropy
pKd: −log10 of the molar value.
OBSERVED PROPERTY: pKd

{"BINDER": "TTTTTTTTTTCCCGGGCCGGCGTTTCGCCGGCCCGGG (structured_DNA) [37-nt hairpin primer-template, 5'-Cy3]", "OBSERVED PROPERTY": "pKd", "RESULT": 6.81}

Taken from paper PMC3477848.
